Tested on: ACHN renal
ASSAY_EXPLANATION: NCI-60 one-dose screen, 48 h (100 = growth as untreated, 0 = no growth, -100 = all killed)
PROTOCOL_CONDITIONS: 10 µM unless noted
The panel holds about 83,000 compounds, 20% with a hit somewhere; the sample as a whole holds those more often.
Entry flag: rule met if growth reaches 60%; rule not met if it does not.

In plain terms: is recorded growth at least 60% for `N#C/C(=C\c1ccc(-c2ccc(Cl)cc2)o1)C(=O)Nc1ncc(Cc2ccc(Cl)cc2)s1` ?
rule not met

In plain terms: is recorded growth at least 60% for `CCOC(=O)c1ccc2[nH]c(O)c(C(=Nc3ccc(N(C)C(=O)CN4CCN(C)CC4)cc3)c3ccccc3)c2c1` ?
rule not met

In plain terms: is recorded growth at least 60% for `O=S(=O)(NCCNc1nccc(-c2c(-c3cccc(F)c3)nc3occn23)n1)c1ccc(Br)cc1` ?
rule met

In plain terms: is recorded growth at least 60% for `C=C(C)[C@@H]1CC[C@]2(C(=O)O)CC[C@]3(C)[C@H](CC[C@@H]4[C@@]5(C)C[C@@H](Cc6cn(CCO[C@@H]7O[C@H](COC(C)=O)[C@H](OC(C)=O)[C@H](OC(C)=O)[C@H]7OC(C)=O)nn6)[C@H](O)C(C)(C)[C@@H]5CC[C@]43C)[C@@H]12` ?
rule met

In plain terms: is recorded growth at least 60% for `S=C(Nc1ccc(-c2nc(N3CCOCC3)c3cccn3n2)cc1)Nc1cccnc1` ?
rule not met

In plain terms: is recorded growth at least 60% for `C1=C(N2CCCC2)CCC1` ?
rule met

In plain terms: is recorded growth at least 60% for `O=C1C(Cl)=C(Nc2ccc(O)cc2)C(=O)N1Cc1ccc(Cl)cc1` ?
rule met

In plain terms: is recorded growth at least 60% for `Cc1ccc(-c2csc(NC(=O)CN3CCN(c4cc5c(cc4F)c(=O)c(C(=O)O)cn5C4CC4)CC3)n2)cc1` ?
rule not met

In plain terms: is recorded growth at least 60% for `CC(C)CCC[C@@H](C)[C@H]1CC[C@H]2[C@@H]3CC=C4C[C@@H](C(C(=O)O)C(=O)O)CC[C@]4(C)[C@H]3CC[C@]12C` ?
rule not met

###

Consider the following compounds; for each one, report its growth.
Tested on: NCI-H226 lung
ASSAY_EXPLANATION: NCI-60 one-dose screen, 48 h (100 = growth as untreated, 0 = no growth, -100 = all killed)
PROTOCOL_CONDITIONS: 10 µM unless noted
The panel holds about 83,000 compounds, 20% with a hit somewhere; the sample as a whole holds those more often.
Note: unit % is implicit; provide only the numeric part.

Considering `CNC(=O)c1cc(Oc2ccc3c(c2)sc2nc(-c4cc(OC)c(OC)c(OC)c4)cn23)ccn1` , its growth with NCI-H226 lung was recorded as 49

Considering `O=C(CSc1nc2ccc([N+](=O)[O-])cc2[nH]1)Nc1ccc(F)cc1` , its growth with NCI-H226 lung was recorded as 48.9

Considering `COC(=O)/C(CCC=C(C)C)=C1\[C@@H](OC(C)=O)C[C@@]2(C)[C@H]1C[C@@H](O)[C@H]1[C@@]3(C)CC[C@H](NCCN)[C@@H](C)[C@@H]3CC[C@@]12C` , its growth with NCI-H226 lung was recorded as 83.5

Considering `COc1cc(CNS(=O)(=O)c2ccc(C)cc2)ccc1OCc1cn(-c2ccc(F)cc2)nn1` , its growth with NCI-H226 lung was recorded as 71.4

Considering `COc1ccc(-c2cc(-c3ccc(Cl)cc3)c(C#N)c(=O)n2CCCCC(=O)Nc2ccccc2N)cc1` , its growth with NCI-H226 lung was recorded as 55.3

###

Test system: SF-539 CNS
ASSAY_EXPLANATION: NCI-60 one-dose screen, 48 h (100 = growth as untreated, 0 = no growth, -100 = all killed)
PROTOCOL_CONDITIONS: 10 µM unless noted
The panel holds about 83,000 compounds, 20% with a hit somewhere; the sample as a whole holds those more often. Active and inactive are the calls of the source. The calls were made as follows: active = growth percent below 10; inactive = the rest.
OBSERVED_PROPERTY: growth

The reported value for `O=S(=O)(Nc1cc(Br)c(O)c2ccccc12)c1ccc(F)cc1` in terms of growth is 85.1% (inactive)

The reported value for `CC[C@]12C=CCN3CC[C@@]4(c5cc(NC(=O)CCC(=O)OCc6cn(Cc7ccc(F)cc7)nn6)c(OC)cc5N(C)[C@H]4[C@@](O)(C(=O)OC)[C@@H]1OC(C)=O)[C@@H]32` in terms of growth is 96.9% (inactive)

The reported value for `O=C(/C=C/c1ccc(Cl)cc1)c1cccc(Nc2nc(Nc3ccccc3)nc(Nc3ccccc3)n2)c1` in terms of growth is 116% (inactive)

The reported value for `O=C(/C=C/c1cccs1)c1ccc(Cl)nc1` in terms of growth is 101% (inactive)

The reported value for `O=[N+]([O-])c1ccc(N/N=C(/C(=N/Nc2ccc([N+](=O)[O-])cc2)c2ccccc2)c2ccccc2)cc1` in terms of growth is 94.2% (inactive)

The reported value for `C=C1C(=O)O[C@H]2[C@H]1CC/C(COC(=O)CSCCSCC(=O)OC/C1=C/CC[C@@]3(C)O[C@H]3[C@H]3OC(=O)C(=C)[C@@H]3CC1)=C\CC[C@@]1(C)O[C@@H]21` in terms of growth is 1.67% (active)

The reported value for `CCCNC(=O)Oc1ccc(/C(=C(/C)Cc2ccc(OC)cc2)c2ccc(OCCCN(C)C)cc2)cc1` in terms of growth is 97.8% (inactive)

The reported value for `OCc1cccc(-c2ccc3ncc(-c4nc(NC5CC5)ncc4F)n3c2)c1` in terms of growth is -61.2% (active)

The reported value for `CCCCCOc1ccc(C(=O)/C(Br)=C/C(=O)O)cc1` in terms of growth is 100% (inactive)

The reported value for N#CC1=C(N)Oc2c(sc3c(F)cccc23)C1c1ccc(F)cc1 (stereo not drawn) in terms of growth is -14.3% (active)

The reported value for `N#Cc1cccc(NC(=O)c2oc3ccccc3c2-c2cnn(-c3ccccc3)c2)c1` in terms of growth is 81.5% [50 µM] (inactive)

The reported value for `CCn1c(SCC(=O)c2ccc(Br)cc2)nnc1-c1ccncc1` in terms of growth is 99.3% (inactive)

The reported value for `N#C/C(=C\c1ccc(Br)cc1)n1nnc2ccc(F)cc21` in terms of growth is -24.3% (active)

The reported value for `COc1cc(CNS(=O)(=O)c2ccc(C)cc2)ccc1OCc1cn(-c2ccc(F)cc2)nn1` in terms of growth is 89.3% (inactive)

The reported value for `Brc1ccc2[nH]cc(-c3nonc3-c3c[nH]c4ccccc34)c2c1` in terms of growth is 59.9% (inactive)

The reported value for `COc1ccc(-c2ccc3cnc4sc(-c5ccc(OC)cc5)nc4c3n2)cc1` in terms of growth is 91.5% (inactive)

The reported value for `COc1ccc2nc3ccc(OC)cc3c(SCCCN)c2c1` in terms of growth is 108% (inactive)

The reported value for `Cc1nc2c(=O)[nH]c(SCC(=O)Nc3cccc(F)c3)nc2[nH]c1=O` in terms of growth is 101% (inactive)

###

Consider the following molecules; for each one, report its growth.
Test system: OVCAR-5 ovarian
ASSAY_EXPLANATION: NCI-60 one-dose screen, 48 h (100 = growth as untreated, 0 = no growth, -100 = all killed)
PROTOCOL_CONDITIONS: 10 µM unless noted
Description: Growth inhibition of the OVCAR-5 human tumor cell line is measured as a screen for anti-cancer activity. Cells are grown in 96 well plates and exposed to the test compound for 48 hours. Compounds are tested at a single concentration, which is 10^-5 M for most compounds. The reported endpoint is percent growth (GI% or GIPRCNT), where numbers from 0 - 100% represent growth inhibition, and numbers from -100% - 0 represent cell death. For example, a value of 40 represents 60% growth inhibition. […]
About 83,000 compounds went through this panel and 20% of them were active in at least one assay; those are over-represented in the sample as a whole.
Note: unit % is implicit; provide only the numeric part.

The reported value for `COc1ccc(-c2nnc(-c3ccc4c(c3)nc(-c3ccncc3)n4C3CCCCC3)o2)cc1` in terms of growth is 102

The reported value for CC[C@@H](C(=O)[C@@H](C)[C@@H](O)[C@H](C)[C@@H]1O[C@@H]([C@@H](CC)C(=O)NCCc2ccc(F)cc2)CC[C@@H]1C)C1O[C@]2(C=CC(=O)[C@]3(CC[C@@](C)([C@H]4CC[C@](O)(CC)[C@H](C)O4)O3)O2)[C@H](C)C[C@@H]1C (some centres not stated) in terms of growth is 67.7

The reported value for `CC(=O)OC[C@]12CCC(C)(C)C[C@H]1[C@@]1(O)[C@H](O)C[C@@H]3[C@@]4(C)CCCNC(C)(C)[C@@H]4CC[C@@]3(C)[C@]1(C)CC2` in terms of growth is 102

The reported value for N#CC1C=CN(CC(N)=O)c2ccc3cccnc3c21 (configuration not stated) in terms of growth is 98.9

The reported value for `COC(=O)/C=C1/SC(=Nc2ccc(C)cc2)N(CCc2c[nH]c3ccc(O)cc23)C1=O` in terms of growth is 108

The reported value for `CCOC(=O)c1c(C)nc2c(c1N)CC(=O)N2Cc1cc(F)cc(Cl)c1` in terms of growth is 97.5

The reported value for `COc1ccc2c3c([nH]c2c1)C(=O)c1nc(C)ccc1C3=O` in terms of growth is 85

The reported value for `CCOC(=O)C#Cc1c(C(=O)OCC)nnn1[C@@H]1O[C@H](CO)[C@H]2OC3(CCCCC3)O[C@H]21` in terms of growth is 105

The reported value for `O=C(Nn1c2c(sc1=Nc1ccccc1)C(=O)c1ccccc1C2=O)c1cc2ccc1CCc1ccc(cc1)CC2` in terms of growth is 110

The reported value for `CCOC(=O)/C=C1\S/C(=N\Nc2cc(=O)[nH]c3ccc(Cl)cc23)N(c2ccccc2)C1=O` in terms of growth is 111

The reported value for `O=C(c1ccc(Cl)cc1)N1CCN(c2ccnc3cc(Cl)ccc23)CC1` in terms of growth is 93

The reported value for `CN1CCN(C(=O)c2ccc(NC(=O)Nc3ccc(-c4nc(N5CCOCC5)c5cccn5n4)cc3)cc2)CC1` in terms of growth is 0.331

The reported value for `CN(C)Cc1ccc(NC(=O)c2cncc(C#Cc3cnc(N)c4ncccc34)c2)cc1F` in terms of growth is 123

The reported value for `COCCNC(=O)c1ccc(-c2nc3ccc4[nH]ncc4c3c3c2CCCC3)cc1` in terms of growth is 67.8

The reported value for `CCCNC(=O)Oc1ccc(/C(=C(/C)Cc2ccc(OC)cc2)c2ccc(OCCCN(C)C)cc2)cc1` in terms of growth is 94

The reported value for `OB(O)c1cccc(-c2nc3ccc4[nH]ncc4c3c3c2CCCC3)c1` in terms of growth is 78.3

The reported value for `COc1ccc(-c2nc(/C=C3\SC(=NCc4ccccc4)NC3=O)c3ccccn23)cc1` in terms of growth is -15

The reported value for `CSc1nc2sc3c(c2c(=O)n1-c1ccc([N+](=O)[O-])cc1)CCCCC3` in terms of growth is 87.8

The reported value for `COc1cc(/C=C\c2cc(/C=C\c3ccc(O)c(OC)c3)n(C(=O)COc3ccc(Cl)cc3Cl)n2)ccc1O` in terms of growth is 56.7

The reported value for CSc1nnc(-c2cnn3c2NC(c2ccccc2)C3)n1-c1ccc(C(F)(F)F)cc1 (configuration not stated) in terms of growth is 84.7

The reported value for COc1ccc(/C=C2\C(=O)N=C3N2NC(c2cc(Br)ccc2O)C=C(C)N3c2ccccc2)cc1 (configuration not stated) in terms of growth is 104

The reported value for `Clc1ccc(Sc2cnc(-c3ccccc3)o2)cc1` in terms of growth is 98.8

The reported value for Nc1nc(=S)c2ncn(C3OC(COP(=O)(O)O)C(O)C3O)c2[nH]1 (configuration not stated) in terms of growth is 36.8

The reported value for `CC(C)CCNC(=O)Cn1cccc(NC(=O)OCc2ccccc2)c1=O` in terms of growth is 127

The reported value for `C=CCn1cc(-c2nc3ccccc3s2)c2cc(-c3ccc4c5c(cccc35)C(=O)N(N)C4=O)ccc21` in terms of growth is 103

The reported value for `O=C(Cn1cc(CN2C(=O)c3ccccc3S2(=O)=O)nn1)Nc1nc2ccccc2s1` in terms of growth is 101

The reported value for `CCN1CC(=O)N(/N=C2\C(=O)Nc3ccccc32)C1=S` in terms of growth is 97.2

The reported value for `COc1cc(/C=C/C(=O)c2cccc(Nc3nc(Nc4ccccc4)nc(Nc4ccccc4)n3)c2)cc(OC)c1OC` in terms of growth is 78.8

The reported value for `C[C@H](NC(=O)[C@@H](C)N)[C@H](Oc1ccc2c(cnn2-c2ccc(F)cc2)c1)c1ccc2c(c1)OCCO2` in terms of growth is 64.7

The reported value for `CCCCNc1ccc(C#N)c(OCCN(CC)CC)c1` in terms of growth is 97.4

The reported value for `C#CCOc1ccc2ncnc(Nc3ccc(NC(=O)CCl)cc3)c2c1` in terms of growth is 30.5

The reported value for `CC(C)=NNc1ccccn1` in terms of growth is 54.4
